Data credit: ChEMBL document CHEMBL1126865

Test system: Haemophilus influenzae
Assay explanation: In vitro antibacterial activity against Haemophilus influenza C.L
Type: functional
Recorded metric: MIC (µg/mL)

Worked examples follow.
| Entry smiles | MIC, µg/mL |
| --- | --- |
| C=CCCCO/N=C(/C(=O)N[C@H]1CN2CC(S(C)(=O)=O)=C(C(=O)O)N2C1=O)c1csc(N)n1 | 0.25 |
| Nc1nc(/C(=N\OCCCl)C(=O)N[C@H]2CN3CC(S(=O)(=O)c4ccccc4)=C(C(=O)O)N3C2=O)cs1 | 0.25 |
| C=CCO/N=C(/C(=O)N[C@H]1CN2CC(S(=O)(=O)CC=C)=C(C(=O)O)N2C1=O)c1csc(N)n1 | 0.25 |

A: CCS(=O)(=O)C1=C(C(=O)O)N2C(=O)[C@@H](NC(=O)/C(=N/OCCBr)c3csc(N)n3)CN2C1
B: C=CCO/N=C(/C(=O)N[C@H]1CN2CC(S(C)(=O)=O)=C(C(=O)O)N2C1=O)c1csc(N)n1
Quick one: lower MIC, A or B ? Respond with the label that goes with your answer. B
